# ASSAY TARGET: Ba/F3 cells bearing a KRAS G12C mutation (Homo sapiens, UniProt P01116, G12C, cells depend on it)
# Sequence (P01116 whole entry G12C): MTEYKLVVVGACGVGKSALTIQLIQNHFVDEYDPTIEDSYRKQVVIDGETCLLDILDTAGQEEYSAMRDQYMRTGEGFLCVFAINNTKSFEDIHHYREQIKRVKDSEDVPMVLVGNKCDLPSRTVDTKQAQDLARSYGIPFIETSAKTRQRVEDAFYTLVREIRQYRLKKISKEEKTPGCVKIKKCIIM
# TEST: Ba/F3 cell model proliferation assay (AlamarBlue, 72 h)
# Assay type: cell-based
# RECORDED CONDITIONS: corrected by plasma protein binding in 10% FCS (fraction unbound); read-out: IC50 Ba/F3 KRASG12C (corrected)
hey, just use Yes if measured GI50 is less than 900 pM, otherwise No

query: Lab note: confirm whether the reported GI50 for this compound is below 900 pM, equality not counting. compound: C=CC(=O)N1CCN(c2cc(O[C@@H](C)[C@@H]3CCCN3C)nc(-c3cc(C4(C)CCCc5sc(N)c(C#N)c54)on3)n2)CC1 (stereo partly drawn)
result: Yes

query: Please let me know if C=C(F)C(=O)N1[C@@H](C)CN(c2cc(O[C@@H](C)[C@@H]3CCCN3C)nc(-c3cc([C@@]4(C)CCCc5sc(N)c(C#N)c54)no3)n2)C[C@@H]1C shows GI50 below 900 pM.
result: No

query: Dear colleague, could you confirm whether GI50 of C=CC(=O)N1[C@@H](C)CN(c2cc(O[C@@H](C)[C@@H]3CCCN3C)nc(-c3cc([C@@]4(C)CCCc5sc(N)c(C#N)c54)on3)n2)C[C@@H]1C falls below 900 pM? Thanks.
result: Yes

query: Dear colleague, could you confirm whether GI50 of C=CC(=O)N1CCN(c2cc(O[C@@H](C)[C@@H]3CCCN3C)nc(-c3cc([C@@]4(C)CCCc5sc(N)c(C#N)c54)on3)n2)CC12CC2 falls below 900 pM? Thanks.
result: Yes

query: Consider the compound C=C(F)C(=O)N1CCC(Oc2cc(N3CCN(C)C[C@@H]3C)nc(-c3cc(C4(C)CCCc5sc(N)c(C#N)c54)on3)n2)CC1 (stereo partly drawn) . Is its GI50 strictly less than 900 pM?
result: No

query: Regarding COC/C=C/C(=O)N1CCN(c2cc(O[C@@H](C)[C@@H]3CCCN3C)nc(-c3cc([C@@]4(C)CCCc5sc(N)c(C#N)c54)on3)n2)[C@H](C)C1 , kindly confirm whether its GI50 is beneath 900 pM.
result: No

query: GI50 strictly < 900 pM for this compound? C=CC(=O)N1[C@@H](C)CN(c2nc(-c3cc([C@@]4(C)CCCc5sc(N)c(C#N)c54)on3)nc(O[C@@H](C)[C@@H]3CCCN3C)c2Cl)C[C@@H]1C
result: Yes

query: Please let me know if C=CC(=O)N1[C@H](C)CN(c2cc(O[C@@H](C)[C@@H]3CCCN3C)nc(-c3cc([C@@]4(C)CCCc5sc(N)c(C#N)c54)sn3)n2)C[C@@H]1C shows GI50 below 900 pM.
result: Yes

query: Is 900 pM strictly greater than the compound's reported GI50? compound: C=CC(=O)N1CCC(Oc2cc(O[C@@H](C)[C@@H]3CCCN3C)nc(-c3cc([C@@]4(C)CCCc5sc(N)c(C#N)c54)no3)n2)CC1
result: Yes

query: Strictly below 900 pM: is that where GI50 of C=C(F)C(=O)N1[C@@H](C)CN(c2cc(O[C@@H](C)[C@@H]3CCCN3C)nc(-c3cc([C@@]4(C)CCCc5sc(N)c(C#N)c54)on3)n2)C[C@@H]1C sits?
result: Yes

query: Does the reported GI50 of C=CC(=O)N1CCN(c2cc(O[C@@H](C)[C@@H]3CCCN3C)nc(-c3cc([C@@]4(C)CCCc5sc(N)c(C#N)c54)on3)n2)[C@H](C)C1 stay below 900 pM?
result: Yes

query: Please check: GI50 for C=C(F)C(=O)N1CCC(Oc2cc(O[C@@H](C)[C@@H]3CCCN3C)nc(-c3cc([C@@]4(C)CCCc5sc(N)c(C#N)c54)sn3)n2)CC1 , strictly under 900 pM or not?
result: No

Where do the numbers come from? From patent US11945812B2.
